Property: melting point; scope: individual molecules
Counter-ions that a name gives are not always drawn.

Example entries begin here.
{"columns": ["molecule", "melting point"],
 "data": [
  ["Cc1nc2ccccc2n1-c1ccc(C(=O)N(C)[C@H]2CCN(CC3CC3)C2)cc1 (as salt: hydrochloride)", "179 to 180 °C"],
  ["CN(C(=O)c1ccc(-n2ncc3ccccc32)cc1)[C@@H]1CCN(C2CCCC2)C1 (as salt: hydrochloride)", "151 to 152 °C"],
  ["CC(C)N1CCC(N(C)C(=O)c2ccc(Cn3cnc4ccccc43)cc2)CC1 (as salt: hydrochloride)", "185 to 187 °C"],
  ["CN(C(=O)c1ccc(-n2cc3ccccc3n2)cc1)[C@@H]1CCN(C2CCCC2)C1 (as salt: hydrochloride)", "216 to 218 °C"],
  ["Cc1nc2ccccc2n1-c1ccc(C(=O)N(C)[C@@H]2CCN(CC3CC3)C2)cc1 (as salt: hydrochloride)", "185 to 186 °C"],
  ["CC(C)N1CC[C@@H](N(C)C(=O)c2ccc(Cn3ncc4ccccc43)cc2)C1 (as salt: hydrochloride)", "156 to 158 °C"],
  ["CN(C(=O)c1ccc(Cn2cnc3ccccc32)cc1)C1CCNCC1", "199 to 201 °C"],
  ["Cc1nc2cc(C#N)ccc2n1-c1ccc(C(=O)N(C)[C@@H]2CCN(C3CCCC3)C2)cc1 (as salt: hydrochloride)", "185 to 187 °C"],
  ["Cc1nc2cc(C#N)ccc2n1-c1ccc(C(=O)N(C)[C@@H]2CCN(C(C)C)C2)cc1 (as salt: hydrochloride)", "230 to 232 °C"],
  ["Cc1nc2ccccc2n1Cc1ccc(C(=O)N(C)C2CCNCC2)cc1", "196 to 198 °C"]
]}

// recorded melting point for CN(C(=O)c1ccc(Cn2ncc3ccccc32)cc1)[C@@H]1CCN(C2CCC2)C1 (as salt: hydrochloride) : 105 to 106 °C

// recorded melting point for Cc1nc2ccccc2n1-c1ccc(C(=O)N(C)[C@H]2CCN(C3CCCC3)C2)cc1 (as salt: hydrochloride) : 165 to 166 °C

// recorded melting point for Cc1nc2ccccc2n1-c1ccc(C(=O)N[C@@H]2CCN(C3CCCCC3)C2)cc1 (as salt: hydrochloride) : 194 to 196 °C

// recorded melting point for Cc1nc2ccccc2n1-c1ccc(C(=O)N(C)[C@@H]2CCN(C3CCCCC3)C2)cc1 (as salt: hydrochloride) : 193 to 194 °C

----------
Property: melting point; scope: individual molecules
Structures can show the parent of a compound that is named as a salt.

Example entries begin here.
{"columns": ["molecule", "melting point"],
 "data": [
  ["COc1cc(C(=O)N(C)C2CCN(C3CCCC3)CC2)ccc1-n1c(C)nc2ccccc21 (as salt: hydrochloride)", "244 to 246 °C"],
  ["Cc1nc2ccccc2n1-c1ccc(C(=O)N(C)[C@@H]2CCN(C3CCC3)C2)c(Cl)c1 (as salt: hydrochloride)", "207 to 209 °C"]
]}

From here, focus on the item given below.
// recorded melting point for Cc1nc2ccccc2n1Cc1ccc(C(=O)N(C)[C@@H]2CCN(C3CCC3)C2)c2ccccc12 (as salt: hydrochloride) [Example 143b] : 157 to 159 °C

----------
Property: Ki; scope: individual compounds
experimental.target: Human Histamine H3 Receptor (Homo sapiens, UniProt Q9Y5N1)
Construct: membrane preparation)
Sequence (Q9Y5N1 whole entry): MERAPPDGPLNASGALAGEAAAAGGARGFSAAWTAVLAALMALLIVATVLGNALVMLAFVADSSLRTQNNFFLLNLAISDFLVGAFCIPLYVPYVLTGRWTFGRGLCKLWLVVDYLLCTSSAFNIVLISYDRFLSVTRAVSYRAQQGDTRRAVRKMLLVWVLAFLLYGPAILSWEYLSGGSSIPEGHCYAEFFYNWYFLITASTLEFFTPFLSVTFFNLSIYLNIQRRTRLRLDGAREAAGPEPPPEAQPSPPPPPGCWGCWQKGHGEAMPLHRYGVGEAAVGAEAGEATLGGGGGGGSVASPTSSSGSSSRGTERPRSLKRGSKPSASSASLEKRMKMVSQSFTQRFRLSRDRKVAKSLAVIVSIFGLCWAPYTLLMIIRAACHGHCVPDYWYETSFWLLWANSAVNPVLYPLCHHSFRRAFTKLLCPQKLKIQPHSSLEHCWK
method.summary: Methyl histamine binding in Human Histamine H3 Receptor Cell Line
assay.context: read-out: hH3 Binding Ki

// recorded Ki for Cc1nc2ccccc2n1-c1ccc(C(=O)N(C)[C@@H]2CCN(C3CCC3)C2)c(Cl)c1 [Example 106] : 0.0101 to 0.05 µM

// recorded Ki for CN(C(=O)c1ccc(Cn2ncc3ccccc32)cc1)[C@@H]1CCN(C2CCCC2)C1 [Example 78] : 0.0501 to 0.1 µM

// recorded Ki for Cc1nc2ccccc2n1-c1ccc(C(=O)N[C@@H]2CCN(C3CCCCC3)C2)cc1 [Example 137] : > 0.1 µM

// recorded Ki for CC(C)N1CC[C@@H](N(C)C(=O)c2ccc(-n3cc4ccccc4n3)cc2)C1 [Example 61] : ≤ 0.01 µM

----------
Property: Ki; scope: individual compounds
experimental.target: Human Histamine H3 Receptor (Homo sapiens, UniProt Q9Y5N1)
Construct: membrane preparation)
method.summary: Methyl histamine binding in Human Histamine H3 Receptor Cell Line
assay.context: read-out: hH3 Binding Ki
Counter-ions that a name gives are not always drawn.

// recorded Ki for Cc1nc2ccccc2n1Cc1ccc(C(=O)N(C)[C@@H]2CCNC2)cc1 [Example 35, Hydrochloride] : > 100 nM

// recorded Ki for Cc1nc2ccccc2n1-c1ccc(C(=O)N(C)C2CCN(C3CCCC3)CC2)cc1F : 10.1 to 50 nM

// recorded Ki for CC(C)N1CCC(N(C)C(=O)c2ccc(-n3ncc4ccccc43)cc2)CC1 : 50.1 to 100 nM

// recorded Ki for CN(C(=O)c1ccc(-n2ncc3ccccc32)cc1)C1CCN(C2CCCC2)CC1 : > 100 nM

----------
Property: melting point; scope: individual compounds
Structures can show the parent of a compound that is named as a salt.

Example entries begin here.
{"columns": ["compound", "melting point"],
 "data": [
  ["Cc1cc(C(=O)N(C)[C@@H]2CCN(C(C)C)C2)ccc1-n1c(C)nc2ccccc21 (as salt: hydrochloride)", "183 to 185 °C"],
  ["Cc1nc2ccccc2n1Cc1ccc(C(=O)N(C)C2CCN(C3CCCC3)CC2)c2ccccc12 (as salt: hydrochloride) [Example 144a]", "228 to 230 °C"],
  ["Cc1nc2ccccc2n1Cc1ccc(C(=O)N(C)[C@@H]2CCN(C3CCCCC3)C2)cc1 (as salt: hydrochloride)", "188 to 190 °C"],
  ["CN(C(=O)c1ccc(Cn2ncc3ccccc32)cc1)C1CCN(C2CCC2)CC1 (as salt: hydrochloride)", "254 to 256 °C"]
]}

// recorded melting point for Cc1nc2ccccc2n1-c1ccc(C(=O)N(C)C2CCN(C3CCCC3)CC2)cc1F (as salt: hydrochloride) : 250 °C (dec.)

// recorded melting point for CN(C(=O)c1ccc(-n2ncc3ccccc32)cc1)C1CCN(C2CCCC2)CC1 (as salt: hydrochloride) : 240 °C (dec.)

----------
Property: melting point; scope: individual compounds
Structures can show the parent of a compound that is named as a salt.

Example entries begin here.
{"columns": ["compound", "readout.type", "recorded.result"],
 "data": [
  ["Cc1nc2ccccc2n1-c1ccc(C(=O)N(C)[C@H]2CCN(C3CCCCC3)C2)cc1 (as salt: hydrochloride)", "melting point", "170 to 172 °C"],
  ["Cc1nc2ccccc2n1-c1ccc(C(=O)N(C)[C@H]2CCN(C3CCC3)C2)cc1 (as salt: hydrochloride)", "melting point", "184 to 185 °C"]
]}

From here, focus on the item given below.
// recorded melting point for Cc1nc2ccccc2n1-c1ccc(C(=O)N(C)[C@@H]2CCN(C(C)C)C2)cc1F (as salt: hydrochloride) [Example 103] : 175 to 177 °C

----------
Structures can show the parent of a compound that is named as a salt.
readout.type: melting point

// recorded melting point for Cc1nc2ccccc2n1-c1ccc(C(=O)N(C)C2CCN(C3CCC3)CC2)cc1 (as salt: hydrochloride) : 280 °C (dec.)

// recorded melting point for Cc1nc2ccccc2n1-c1ccc(C(=O)N(C)[C@H]2CCN(C3CCC[C@@H](C)C3)C2)cc1 (stereo partly shown) (as salt: hydrochloride) : 187 to 189 °C

// recorded melting point for CN(C(=O)c1ccc(Cn2cccn2)cc1)C1CCN(C2CCC2)CC1 (as salt: hydrochloride) : 235 to 237 °C

// recorded melting point for Cc1nc2ccccc2n1-c1ccc(C(=O)N(C)[C@@H]2CCN(CC3CCCCC3)C2)cc1 (as salt: hydrochloride) : 184 to 185 °C

----------
Property: melting point; scope: individual compounds
Where a name gives a salt, the structure may show the parent alone.

Example entries begin here.
{"columns": ["compound", "readout.type", "recorded.result"],
 "data": [
  ["CC(C)N1CCC(N(C)C(=O)c2ccc(-n3cc4ccccc4n3)cc2)CC1 (as salt: hydrochloride)", "melting point", "166 to 168 °C"],
  ["Cc1nc2ccccc2n1-c1ccc(C(=O)N(C)[C@@H]2CCN(CC3CCCC3)C2)cc1 (as salt: hydrochloride)", "melting point", "190 to 192 °C"],
  ["COc1cc(-n2c(C)nc3ccccc32)ccc1C(=O)N(C)C1CCN(C2CCCC2)CC1 (as salt: hydrochloride)", "melting point", "210 to 212 °C"]
]}

// recorded melting point for COc1cc(-n2c(C)nc3ccccc32)ccc1C(=O)N(C)[C@@H]1CCN(C(C)C)C1 (as salt: hydrochloride) : 193 to 195 °C

----------
experimental.target: Human Histamine H3 Receptor (Homo sapiens)
Construct: membrane preparation)
method.summary: Methyl histamine binding in Human Histamine H3 Receptor Cell Line
assay.context: read-out: hH3 Binding Ki
Structures can show the parent of a compound that is named as a salt.
readout.type: Ki

Example entries begin here.
{"columns": ["molecule", "experimental.target", "readout.type", "recorded.result"],
 "data": [
  ["Cc1nc2ccccc2n1-c1ccc(C(=O)N(C)C2CCNCC2)cc1 [Example 30, Hydrochloride]", "Human Histamine H3 Receptor (Homo sapiens)", "Ki", "> 100 nM"],
  ["Cc1nc2ccccc2n1-c1ccc(C(=O)N(C)[C@@H]2CCN(C(C)C)C2)cc1F [Example 103]", "Human Histamine H3 Receptor (Homo sapiens)", "Ki", "10.1 to 50 nM"],
  ["CN(C(=O)c1ccc(-n2cc3ccccc3n2)cc1)[C@@H]1CCNC1 [Example 60a]", "Human Histamine H3 Receptor (Homo sapiens)", "Ki", "> 100 nM"],
  ["Cc1nc2ccccc2n1-c1ccc(C(=O)N(C)C2CCN(C3CCCC3)CC2)c(Cl)c1 [Example 122]", "Human Histamine H3 Receptor (Homo sapiens)", "Ki", "50.1 to 100 nM"],
  ["CC(C)N1CCC(N(C)C(=O)c2ccc(-n3cccn3)cc2)CC1 [Example 85]", "Human Histamine H3 Receptor (Homo sapiens)", "Ki", "> 100 nM"],
  ["CC(C)N1CCC(N(C)C(=O)c2ccc(Cn3ncc4ccccc43)cc2)CC1 [Example 79]", "Human Histamine H3 Receptor (Homo sapiens)", "Ki", "50.1 to 100 nM"]
]}

// recorded Ki for Cc1nc2ccccc2n1Cc1ccc(C(=O)N(C)C2CCN(C3CCCC3)CC2)cc1 [Example 48] : > 100 nM

// recorded Ki for CN(C(=O)c1ccc(-n2ncc3ccccc32)cc1)[C@@H]1CCNC1 [Example 60b] : > 100 nM
